B1: Azoarcus group I ribozyme (parent)
chain: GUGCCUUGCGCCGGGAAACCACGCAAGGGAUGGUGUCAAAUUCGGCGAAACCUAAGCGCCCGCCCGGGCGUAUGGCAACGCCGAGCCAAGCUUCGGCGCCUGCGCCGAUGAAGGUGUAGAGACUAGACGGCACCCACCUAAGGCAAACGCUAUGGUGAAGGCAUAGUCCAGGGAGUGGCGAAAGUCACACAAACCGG

Variants of: B1
Assay: reverse-splicing fitness (ratio to wild type); higher = more active; in vitro selection; Mg2+ level not given
Classify by measured reverse-splicing fitness: Fulfilled if it is equal to or exceeds 0.008, Not fulfilled if it is smaller.

The examples below pair each entry with its known result.
- mutation_id: "C82U A111U A120C A145U C150U"
  group_label: "Fulfilled"
- mutation_id: "C82U A111U A120U A145U C150A"
  group_label: "Not fulfilled"
- mutation_id: "C82G A111C A145C C150A C169G U176A"
  group_label: "Fulfilled"
- mutation_id: "C82G C169A U176G"
  group_label: "Not fulfilled"
- mutation_id: "C82A A111C A145U C169U U176C"
  group_label: "Fulfilled"

Determine whether measured reverse-splicing fitness meets or exceeds 0.008 for C82G A120G A145U C150G C169A U176G
Not fulfilled

Kindly determine if reverse-splicing fitness recorded for C82U A120G A145U C169U U176A is above or exactly 0.008.
Fulfilled

Please indicate if the recorded reverse-splicing fitness for C82A A145G C150G U176G meets or exceeds 0.008.
Fulfilled

Threshold query (reverse-splicing fitness >= 0.008) on C82A A111U A120C A145G C169G
Fulfilled

I'd appreciate it if you could say whether A120U C169A has reverse-splicing fitness at least equal to 0.008.
Fulfilled

Has C82U A111C A120G A145G C150U C169U U176A a recorded reverse-splicing fitness greater than or equal to 0.008?
Fulfilled
